Biological target: CatSper (Homo sapiens, UniProt Q7RTX7+Q86XQ3+Q8NEC5+Q96P56)
Construct: Motile spermatozoa were selected by a ‘swim-up’ procedure; endogenous in cells; host or cells: motile human spermatozoa (swim-up) from healthy donors
Experiment: Steroid-induced increase in [Ca2+]i in human sperm (Fluo-4 HTS assay, screen 1 activators)
Type: cell-based
Details: Mean EC50 µM (±SD), pooled from 3 independent experiments
value_kind: EC50 (µM)

compound	value_units	observed_result
CC12CCC(O)CC1=CCC1C2CCC2(C)C(C(=O)O)CCC12 (stereo not shown) [S67]	µM	0.108
C[C@]12CC[C@@H]3c4ccc(O)cc4CC[C@H]3[C@@H]1CCC2=O [estrone]	µM	0.267
CC12CCC(O)CC1CCC1C2CCC2(C)C1CCC2(C)O (stereo not shown) [S64]	µM	0.265
C[C@]12CC[C@H]3[C@@H](CC[C@H]4C[C@H](O)CC[C@@H]43)[C@@H]1CCC2=O [S85]	µM	0.259
C[C@]12CCC(=O)C(O)=C1CC[C@@H]1[C@@H]2CC[C@]2(C)C(=O)CC[C@@H]12 [formestane]	µM	0.353
CC(=O)[C@H]1CC[C@H]2[C@@H]3CC=C4C[C@@H](O)CC[C@]4(C)[C@H]3CC[C@]12C [Pregnenolone]	µM	0.07
C[C@]12CC[C@H]3[C@@H](CCC4=CC(=O)CC[C@@]43C)[C@@H]1CC[C@@H]2C(=O)CO [Deoxycorticosterone]	µM	0.295
CC(=O)O[C@H]1CC[C@@]2(C)C(=CC[C@@H]3[C@@H]2CC[C@]2(C)C(=O)CC[C@@H]32)C1 [Dehydroisoandosterone 3-acetate (DHEA), Dehydroisoandosterone 3-acetate]	µM	0.584
CC(=O)[C@H]1CC[C@H]2[C@@H]3C=CC4=CC(=O)CC[C@@]4(C)[C@@H]3CC[C@]12C [Dydrogesterone]	µM	0.104
C[C@]12Cc3c[nH]nc3C[C@@H]1CC[C@@H]1[C@@H]2CC[C@@]2(C)[C@H]1CC[C@]2(C)O [Stanozolol]	µM	0.081
C[C@]12C/C(=C/O)C(=O)C[C@@H]1CC[C@@H]1[C@@H]2CC[C@@]2(C)[C@H]1CC[C@]2(C)O [oxymetholone]	µM	1.3
C[C@]12CC[C@H](O)C[C@@H]1CC[C@@H]1[C@@H]2CC[C@]2(C)C(=O)CC[C@@H]12 [Epiandrosterone]	µM	0.207
C[C@]12CC[C@@H](O)C[C@@H]1CC[C@@H]1[C@@H]2CC[C@]2(C)C(=O)CC[C@@H]12 [androsterone]	µM	1.02

###

Target: CatSper (Homo sapiens, UniProt Q7RTX7+Q86XQ3+Q8NEC5+Q96P56)
Construct: Motile spermatozoa were selected by a ‘swim-up’ procedure; endogenous in cells; host or cells: motile human spermatozoa (swim-up) from healthy donors
Test: Steroid-induced increase in [Ca2+]i in human sperm (Fluo-4 HTS assay, screen 1 activators)
Assay type: cell-based
Conditions: EC50 (±SD), increase in [Ca2+]i; dose-response 90 µM to 0.3 nM

molecule	assay_target	value_units	EC50
CC(=O)[C@H]1CC[C@H]2[C@@H]3C=CC4=CC(=O)CC[C@@]4(C)[C@@H]3CC[C@]12C [Dydrogesterone]	CatSper (Homo sapiens, UniProt Q7RTX7+Q86XQ3+Q8NEC5+Q96P56)	nM	130
C[C@]12CC[C@H]3[C@@H](CCC4=CC(=O)CC[C@@H]43)[C@@H]1CC[C@@H]2O [Nandrolone]	CatSper (Homo sapiens, UniProt Q7RTX7+Q86XQ3+Q8NEC5+Q96P56)	nM	306
C[C@]12CC[C@H]3[C@@H](CCC4=CC(=O)CC[C@@]43C)[C@@H]1CC[C@@H]2C(=O)CO [Deoxycorticosterone]	CatSper (Homo sapiens, UniProt Q7RTX7+Q86XQ3+Q8NEC5+Q96P56)	nM	302
C[C@]12CC[C@H]3[C@@H](CCC4=CC(=O)CC[C@@]43C)[C@@H]1CC[C@@H]2O [Testosterone]	CatSper (Homo sapiens, UniProt Q7RTX7+Q86XQ3+Q8NEC5+Q96P56)	nM	407
CC(=O)O[C@H]1CC[C@@]2(C)C(=CC[C@@H]3[C@@H]2CC[C@]2(C)C(=O)CC[C@@H]32)C1 [Dehydroisoandosterone 3-acetate (DHEA), Dehydroisoandosterone 3-acetate]	CatSper (Homo sapiens, UniProt Q7RTX7+Q86XQ3+Q8NEC5+Q96P56)	nM	593
C[C@]12Cc3c[nH]nc3C[C@@H]1CC[C@@H]1[C@@H]2CC[C@@]2(C)[C@H]1CC[C@]2(C)O [Stanozolol]	CatSper (Homo sapiens, UniProt Q7RTX7+Q86XQ3+Q8NEC5+Q96P56)	nM	285
CC(=O)[C@H]1CC[C@H]2[C@@H]3CC=C4C[C@@H](O)CC[C@]4(C)[C@H]3CC[C@]12C [Pregnenolone]	CatSper (Homo sapiens, UniProt Q7RTX7+Q86XQ3+Q8NEC5+Q96P56)	nM	73
C[C@]12CC[C@H](O)C[C@@H]1CC[C@@H]1[C@@H]2CC[C@]2(C)C(=O)CC[C@@H]12 [Epiandrosterone]	CatSper (Homo sapiens, UniProt Q7RTX7+Q86XQ3+Q8NEC5+Q96P56)	nM	209

###

Target: CatSper (Homo sapiens, UniProt Q7RTX7+Q86XQ3+Q8NEC5+Q96P56)
Construct: Motile spermatozoa were selected by a ‘swim-up’ procedure; endogenous in cells; host or cells: motile human spermatozoa (swim-up) from healthy donors
Test: Steroid-induced increase in [Ca2+]i in human sperm (Fluo-4 HTS assay, screen 1 activators)
Assay type: cell-based
Details: read-out: Max amplitude (%) (± SD)
value_kind: Emax (%)

In [3]: df
Out[3]:
                                   molecule  observed_result
0  C#C[C@]1(O)CC[C@H]2[C@@H]3CCC4=CC(=O)CC[C@]4(C)[C@H]3CC[C@@]21C [ethisterone]                8
1  C[C@]12CC[C@H]3[C@@H](CCC4=CC(=O)CC[C@@]43C)[C@@H]1CC[C@@H]2O [Testosterone]               87
2  C=C1C[C@@H]2[C@H](CC[C@]3(C)C(=O)CC[C@@H]23)[C@@]2(C)C=CC(=O)C=C12 [exemestane]               63
3  C[C@H](CCC(=O)O)[C@H]1CC[C@H]2[C@@H]3CC[C@@H]4C[C@H](O)CC[C@]4(C)[C@H]3CC[C@]12C [lithocholic acid]               59

###

Overview of reported Emax across a group of compounds:
Biological target: CatSper (Homo sapiens, UniProt Q7RTX7+Q86XQ3+Q8NEC5+Q96P56)
Construct: Motile spermatozoa were selected by a ‘swim-up’ procedure; endogenous in cells; host or cells: motile human spermatozoa (swim-up) from healthy donors
Assay: Steroid-induced increase in [Ca2+]i in human sperm (Fluo-4 HTS assay, screen 1 activators)
Assay type: cell-based
Conditions: read-out: Max amplitude (%) (± SD)
value_kind: Emax (%)

compound	observed_result
C[C@]12CC[C@H]3[C@@H](CCC4=CC(=O)CC[C@@H]43)[C@@H]1CC[C@@H]2O	98
C[C@]12CC[C@@H](O)C[C@@H]1CC[C@@H]1[C@@H]2CC[C@]2(C)C(=O)CC[C@@H]12	70
CC(=O)O[C@H]1CC[C@@]2(C)C(=CC[C@@H]3[C@@H]2CC[C@]2(C)C(=O)CC[C@@H]32)C1 [Dehydroisoandosterone 3-acetate (DHEA), Dehydroisoandosterone 3-acetate]	77
C[C@]12CC[C@H](O)C[C@@H]1CC[C@@H]1[C@@H]2CC[C@]2(C)C(=O)CC[C@@H]12 [Epiandrosterone]	78
C#C[C@]1(O)CC[C@H]2[C@@H]3CCC4=CC(=O)CCC4=C3C=C[C@@]21CC	2
C[C@]12CC[C@H]3[C@@H](CCC4=CC(=O)CC[C@@]43C)[C@@H]1CC[C@@H]2C(=O)CO	94
CC12CCC3C(CC[C@H]4CC(=O)CCC34C)C1CCC2O (stereo partly shown)	91

###

Recorded measurements of Max P4 inhibition (%) (± SD), one per entry
Target: CatSper (Homo sapiens, UniProt Q7RTX7+Q86XQ3+Q8NEC5+Q96P56)
Construct: Motile spermatozoa were selected by a ‘swim-up’ procedure; endogenous in cells; host or cells: motile human spermatozoa (swim-up) from healthy donors
Experiment: Inhibition of P4-induced Ca2+ influx in human sperm (screen 2 inhibitors)
Format: cell-based
Details: 3 independent experiments
value_kind: Max P4 inhibition (%) (± SD)

In [3]: df
Out[3]:
                                    compound                    value_kind  observed_result
 0  CC(=O)[C@H]1CC[C@H]2[C@@H]3C=CC4=CC(=O)CC[C@@]4(C)[C@@H]3CC[C@]12C  Max P4 inhibition (%) (± SD)        94 (±4) %
 1  C#C[C@]1(O)CC[C@H]2[C@@H]3CCC4=CCCC[C@@H]4[C@H]3CC[C@@]21C  Max P4 inhibition (%) (± SD)       47 (±27) %
 2  C#C[C@]1(O)CC[C@H]2[C@@H]3CCC4=CC(=O)CCC4=C3C=C[C@@]21CC  Max P4 inhibition (%) (± SD)       11 (±21) %
 3  C[C@]12CC[C@@H]3c4ccc(O)cc4CC[C@H]3[C@@H]1CC[C@@H]2O  Max P4 inhibition (%) (± SD)        67 (±3) %
 4  CC12CCC(O)CC1=CCC1C2CCC2(C)C(C(=O)O)CCC12 (stereo not drawn)  Max P4 inhibition (%) (± SD)        86 (±3) %
 5  C#C[C@]1(OC(C)=O)CC[C@H]2[C@@H]3CCC4=CC(=NO)CC[C@@H]4[C@H]3CC[C@@]21CC (mixture of isomers) [norgestimate]  Max P4 inhibition (%) (± SD)        53 (±5) %
 6  CC(C)(C)NC(=O)[C@H]1CC[C@H]2[C@@H]3CC[C@H]4NC(=O)C=C[C@]4(C)[C@H]3CC[C@]12C [finasteride]  Max P4 inhibition (%) (± SD)        18 (±6) %
 7  CC12CCC3C(CC[C@H]4CC(=O)CCC34C)C1CCC2O (stereo partly drawn)  Max P4 inhibition (%) (± SD)        95 (±1) %
 8  C[C@]12CC[C@@H](O)C[C@H]1CC[C@@H]1[C@@H]2CC[C@]2(C)C(=O)CC[C@@H]12 [3-alpha-hydroxy-5-beta-androstan-17-one]  Max P4 inhibition (%) (± SD)        66 (±2) %
 9  CC(=O)O[C@]1(C(C)=O)CC[C@H]2[C@@H]3C=C(C)C4=CC(=O)CC[C@]4(C)[C@H]3CC[C@@]21C [megestrol acetate]  Max P4 inhibition (%) (± SD)       -4 (±11) %
10  C[C@]12CCC(=O)C(O)=C1CC[C@@H]1[C@@H]2CC[C@]2(C)C(=O)CC[C@@H]12  Max P4 inhibition (%) (± SD)        70 (±8) %
11  CC12CCC(O)CC1CCC1C2CCC2(C)C1CCC2(C)O (stereo not drawn)  Max P4 inhibition (%) (± SD)        55 (±1) %
12  C[C@]12CC[C@H]3[C@@H](CCC4=CC(=O)CC[C@@]43C)[C@@H]1CC[C@@H]2O  Max P4 inhibition (%) (± SD)        81 (±6) %
13  C[C@]12C[C@H](O)[C@H]3[C@@H](CCC4=CC(=O)CC[C@@]43C)[C@@H]1CC[C@@H]2C(=O)CO  Max P4 inhibition (%) (± SD)        49 (±5) %
14  CC(=O)[C@H]1CC[C@H]2[C@@H]3CC=C4C[C@@H](O)CC[C@]4(C)[C@H]3CC[C@]12C  Max P4 inhibition (%) (± SD)        82 (±5) %
